inhibition values for the molecules below.
TESTED_SYSTEM: Gag-Pol polyprotein (Human immunodeficiency virus type 1 group M subtype B (isolate HXB2)) (UniProt P04585)
ASSAY_PROTOCOL: RNase H inhibition, HIV 1 Gag Pol polyprotein, FRET biochemical assay, screening (AID 372)
MEASUREMENT_CONTEXT: HIV-1 RT RNase H, FRET RNA/DNA substrate fluorescence; at 10 µM; stronger effect = higher value
The whole screen tested about 100,000 compounds, of which about 770 (0.77%) were called active. The full list was thinned out, with actives kept by preference.

{"MOLECULE": "O=C(NC(=S)Nc1cccc(-c2nc3cc(Cl)cc(Cl)c3o2)c1)c1cccc(F)c1", "inhibition [%]": 58}
{"MOLECULE": "Cn1c(=O)c2c(nc(Sc3nc4ccccc4n3Cc3ccccc3)n2C)n(C)c1=O", "inhibition [%]": 0}
{"MOLECULE": "COc1ccc(C(=O)OCC(=O)c2ccc([N+](=O)[O-])cc2)cc1OC", "inhibition [%]": 7}
{"MOLECULE": "COc1ccc(/C=N/Nc2nc(Nc3ccc(F)cc3)nc(N3CCCCC3)n2)cc1", "inhibition [%]": 6}
{"MOLECULE": "Cc1ccc(-c2nc3ccccc3[nH]2)cc1NC(=O)/C=C\\c1ccccc1", "inhibition [%]": 15}
{"MOLECULE": "Cc1ccc(-c2cc(C(F)(F)F)n3nc(C(N)=O)c(Cl)c3n2)cc1", "inhibition [%]": 11}
{"MOLECULE": "O=C1CSC(c2ccc(Cl)c(Cl)c2)N1CCc1ccccc1 (configuration not stated)", "inhibition [%]": 7}
{"MOLECULE": "Cc1ccc2nc(-c3ccc(NC(=O)/C=C\\c4ccccc4)cc3)oc2c1", "inhibition [%]": 40}
{"MOLECULE": "Cc1ccc2oc(-c3ccc(NC(=O)/C=C\\c4ccccc4)cc3)nc2c1", "inhibition [%]": 52}
{"MOLECULE": "O=C(O)c1cc(NS(=O)(=O)c2ccc(NCCCN3CCOCC3)c([N+](=O)[O-])c2)cc(C(=O)O)c1", "inhibition [%]": 4}
{"MOLECULE": "CCOC(=O)C1CCN(C(=O)c2cc(C(=O)OC)cc([N+](=O)[O-])c2)CC1", "inhibition [%]": 54}
{"MOLECULE": "Cc1cc2nc(-c3ccc(Cl)c(NC(=O)c4cc([N+](=O)[O-])ccc4Cl)c3)oc2cc1C", "inhibition [%]": 8}
{"MOLECULE": "COc1ccc(S(=O)(=O)n2nnc3ccccc32)c2ccccc12", "inhibition [%]": 55}
{"MOLECULE": "Cc1ccc(-c2nc3ccccc3s2)cc1NC(=O)COc1ccccc1", "inhibition [%]": 10}
{"MOLECULE": "COc1ccc(C(=O)N2CCN(S(=O)(=O)c3ccccc3)CC2)cc1", "inhibition [%]": 21}
{"MOLECULE": "Fc1ccc(-c2nnc(-c3ccc(Br)o3)o2)cc1", "inhibition [%]": 6}
{"MOLECULE": "Cc1cc(OCC(=O)OC(C)C)c2c(-c3ccccc3)cc(=O)oc2c1", "inhibition [%]": 20}
{"MOLECULE": "O=C(NC(=S)Nc1cccc(NC(=O)c2ccc(Cl)cc2Cl)c1)c1ccco1", "inhibition [%]": 11}
{"MOLECULE": "COc1cccc(-c2nc3cc(NC(=O)/C=C\\c4ccccc4)ccc3o2)c1", "inhibition [%]": 62}
{"MOLECULE": "CCCCCOc1ccc(/C=N\\Nc2nc(-c3ccccc3)cc(-c3ccccc3)n2)cc1", "inhibition [%]": 8}
{"MOLECULE": "COc1ccc(/C=N/OCC(=O)N2CCN(C(c3ccccc3)c3ccccc3)CC2)cc1OC", "inhibition [%]": 45}
{"MOLECULE": "COc1ccc(C(Nc2ccccc2)P(=O)(OC(C)C)OC(C)C)cc1 (configuration not stated)", "inhibition [%]": 10}
{"MOLECULE": "COc1ccc(OC)c(N(CC(=O)N/N=C/c2cc(Br)ccc2OC)S(=O)(=O)c2ccccc2)c1", "inhibition [%]": 2}
{"MOLECULE": "O=C(NC(=S)Nc1cccc(-c2nc3cc(Cl)cc(Cl)c3o2)c1)c1ccc(Cl)cc1", "inhibition [%]": 11}
{"MOLECULE": "Cc1cc(C)cc(OCC(=O)Nc2cccc(-c3nc4ccccc4s3)c2)c1", "inhibition [%]": 53}
{"MOLECULE": "CCOC(=O)/C(=N/Nc1cccc(C)c1)c1csc(N)n1", "inhibition [%]": 10}
{"MOLECULE": "Cc1ccc2oc(-c3ccc(NC(=O)/C=C/c4ccccc4)cc3O)nc2c1", "inhibition [%]": 22}
{"MOLECULE": "CCOC(=O)C1CCCN(C(=O)c2cc(C(=O)OC)cc([N+](=O)[O-])c2)C1 (configuration not stated)", "inhibition [%]": 16}
{"MOLECULE": "O=C(/C=C\\c1ccccc1)Nc1cccc(-c2nc3ccccc3[nH]2)c1", "inhibition [%]": 21}
{"MOLECULE": "O=C(NC(=S)Nc1ccc(O)c(-c2nc3ccccc3o2)c1)c1ccc([N+](=O)[O-])cc1", "inhibition [%]": 9}
{"MOLECULE": "Cc1cccc(/C=C2\\C(=O)NC(=O)N(c3cccc(Br)c3)C2=O)c1", "inhibition [%]": 10}
{"MOLECULE": "O=C(Nc1ccc(O)c(-c2nc3ccccc3o2)c1)c1ccc(F)cc1", "inhibition [%]": 6}
{"MOLECULE": "CC(=O)Nc1ccc(N=Cc2cccc(C)c2)cc1", "inhibition [%]": 4}
{"MOLECULE": "Cc1ccc(NC(=O)C(C)SCc2ccccc2)c(C)c1 (configuration not stated)", "inhibition [%]": 13}
{"MOLECULE": "COC(=O)c1cc(C(=O)N2CCC(C(=O)OC)CC2)cc([N+](=O)[O-])c1", "inhibition [%]": 7}
{"MOLECULE": "N#C/C(=C\\Nc1ccccc1Cl)c1nc(-c2ccc(Br)cc2)cs1", "inhibition [%]": 2}
{"MOLECULE": "Cc1ccc(C(=O)COC(=O)c2cccc(N3C(=O)C4C5C=CC(C6CC56)C4C3=O)c2)cc1 (configuration not stated)", "inhibition [%]": 9}
